# experiment: Trans-enterocyte transport of CA in Caco-2 cell monolayer
# Assay type: in vitro ADME, human
# condition_context: human, Caco-2, CA 100 μM, 2.0 h
quantity: Papp B→A at 2 h, 100 μM (×10⁻⁶ cm/s)
The answer is to be given in ×10⁻⁶ cm/s; state only the numeric part.

[in] Please look up its Papp B→A at 2 h, 100 μM: CC(C)c1cc2c(c(O)c1O)[C@@]1(C(=O)O)CCCC(C)(C)[C@@H]1CC2
[out] 1.33

###

# experiment: Trans-enterocyte transport of CA in Caco-2 cell monolayer
# Assay type: in vitro ADME, human
# condition_context: human, Caco-2, CA 75 μM, 2.5 h
# Experimental: Caco-2 were cultured in EMEM complete medium containing 10% FBS, 1% non-essential amino acids, and 1% penicillin-streptomycin double antibody, and the culture conditions were 37 °C, 5% CO2, in a constant temperature incubator [16]. We first established non-toxic dose ranges of CA in Caco-2 cells using MTT assay. […] A quantity of 200 μL of medium was added to each well to obtain a series of CA solutions (concentrations of 25, 50, 75, and 100 μmoL). […]
quantity: efflux ratio at 2.5 h, 75 μM
Please respond with just the number, no unit label.

[in] Data request, read-out efflux ratio at 2.5 h, 75 μM, for CC(C)c1cc2c(c(O)c1O)[C@@]1(C(=O)O)CCCC(C)(C)[C@@H]1CC2
[out] 0.49

###

# experiment: Trans-enterocyte transport of CA in Caco-2 cell monolayer
# Assay type: in vitro ADME, human
# condition_context: human, Caco-2, CA 75 μM, 2.5 h
quantity: Papp B→A at 2.5 h, 75 μM (×10⁻⁶ cm/s)
Please respond with the number in ×10⁻⁶ cm/s and leave the unit unwritten.

[in] Field request: Papp B→A at 2.5 h, 75 μM | item: CC(C)c1cc2c(c(O)c1O)[C@@]1(C(=O)O)CCCC(C)(C)[C@@H]1CC2 [CA, Carnosic acid]
[out] 0.41

###

# experiment: Trans-enterocyte transport of CA in Caco-2 cell monolayer
# Assay type: in vitro ADME, human
# condition_context: human, Caco-2, CA 75 μM, 0.5 h; read-out: Papp AP-BL
quantity: Papp A→B at 0.5 h, 75 μM (×10⁻⁶ cm/s)
Provide only the numeric value, understood in ×10⁻⁶ cm/s.

[in] Fill blank: measured Papp A→B at 0.5 h, 75 μM of the molecule CC(C)c1cc2c(c(O)c1O)[C@@]1(C(=O)O)CCCC(C)(C)[C@@H]1CC2 is ____.
[out] 1.03

###

# experiment: Effect of verapamil, PEG 400 and EDTA on trans-enterocyte transport of CA
# Type: in vitro ADME, human
# condition_context: human, Caco-2, with verapamil 100 μmol/L, CA 75 μM, Average of 0.5-3.0 h, + 100 μmoL/L verapamil; read-out: Papp AP to BL
quantity: Papp A→B at 75 μM (×10⁻⁶ cm/s)
Value expressed in ×10⁻⁶ cm/s; do not type the unit.

[in] Consider the molecule CC(C)c1cc2c(c(O)c1O)[C@@]1(C(=O)O)CCCC(C)(C)[C@@H]1CC2 [CA, Carnosic acid] and give its measured Papp A→B at 75 μM.
[out] 1.53

###

# experiment: Effect of verapamil, PEG 400 and EDTA on trans-enterocyte transport of CA
# Type: in vitro ADME, human
# condition_context: human, Caco-2, CA 50 μM, 1.5 h, + 5 mmoL/L EDTA; read-out: Papp AP to BL
quantity: Papp A→B at 1.5 h, 50 μM (×10⁻⁶ cm/s)
// note: answer is a bare numeric in ×10⁻⁶ cm/s

[in] // query Papp A→B at 1.5 h, 50 μM value for entry CC(C)c1cc2c(c(O)c1O)[C@@]1(C(=O)O)CCCC(C)(C)[C@@H]1CC2 [CA, Carnosic acid]
[out] 0.62

###

# experiment: Effect of verapamil, PEG 400 and EDTA on trans-enterocyte transport of CA
# Format: in vitro ADME, human
# condition_context: human, Caco-2, CA 75 μM, 3.0 h, + 5 mmoL/L EDTA; read-out: Papp AP to BL
# Experimental: CA was dissolved in HBSS solution at 50, 75, and 100 μM. The HBSS solution containing CA combined with 0.5% Tween 80, 5 mmol/L EDTA or 5% PEG 400 was prepared. The cumulative migration (Qr), apparent permeability coefficient (Papp), and the Papp value of bi-direction transport of CA were calculated according to formulas. […]
quantity: Papp A→B at 3 h, 75 μM
Kindly format the answer as number then unit.

[in] // Papp A→B at 3 h, 75 μM lookup, key: CC(C)c1cc2c(c(O)c1O)[C@@]1(C(=O)O)CCCC(C)(C)[C@@H]1CC2
[out] 0.57 ×10⁻⁶ cm/s

###

# experiment: Trans-enterocyte transport of CA in Caco-2 cell monolayer
# Format: in vitro ADME, human
# condition_context: human, Caco-2, CA 50 μM, 1.0 h; read-out: Papp AP-BL
quantity: Papp A→B at 1 h, 50 μM (×10⁻⁶ cm/s)
Please respond with the number in ×10⁻⁶ cm/s and leave the unit unwritten.

[in] So what does the record say about Papp A→B at 1 h, 50 μM for CC(C)c1cc2c(c(O)c1O)[C@@]1(C(=O)O)CCCC(C)(C)[C@@H]1CC2 [CA, Carnosic acid] ?
[out] 0.36

###

# experiment: Effect of verapamil, PEG 400 and EDTA on trans-enterocyte transport of CA
# Assay type: in vitro ADME, human
# condition_context: human, Caco-2, with verapamil 100 μmol/L, CA 100 μM, 0.5 h, + 100 μmoL/L verapamil; read-out: Papp AP to BL
quantity: Papp A→B at 0.5 h, 100 μM

[in] I have this molecule here, CC(C)c1cc2c(c(O)c1O)[C@@]1(C(=O)O)CCCC(C)(C)[C@@H]1CC2 , and I need its recorded Papp A→B at 0.5 h, 100 μM.
[out] 1.26 ×10⁻⁶ cm/s

###

# experiment: Trans-enterocyte transport of CA in Caco-2 cell monolayer
# Format: in vitro ADME, human
# condition_context: human, Caco-2, CA 100 μM, 2.5 h; read-out: Papp AP-BL
quantity: Papp A→B at 2.5 h, 100 μM (×10⁻⁶ cm/s)
Report only the number, with the unit ×10⁻⁶ cm/s understood.

[in] Can you share its Papp A→B at 2.5 h, 100 μM? I mean this compound: CC(C)c1cc2c(c(O)c1O)[C@@]1(C(=O)O)CCCC(C)(C)[C@@H]1CC2 [CA, Carnosic acid]
[out] 0.85

###

# experiment: Trans-enterocyte transport of CA in Caco-2 cell monolayer
# Assay type: in vitro ADME, human
# condition_context: human, Caco-2, CA 100 μM, Average of 0.5-3.0 h
quantity: efflux ratio at 100 μM

[in] What value of measured efflux ratio at 100 μM is listed for CC(C)c1cc2c(c(O)c1O)[C@@]1(C(=O)O)CCCC(C)(C)[C@@H]1CC2 ?
[out] 1.03

###

# experiment: Trans-enterocyte transport of CA in Caco-2 cell monolayer
# Format: in vitro ADME, human
# condition_context: human, Caco-2, CA 75 μM, Average of 0.5-3.0 h
quantity: efflux ratio at 75 μM
Reply with the value as a number alone.

[in] Any idea what efflux ratio at 75 μM was measured for CC(C)c1cc2c(c(O)c1O)[C@@]1(C(=O)O)CCCC(C)(C)[C@@H]1CC2 ?
[out] 0.63

###

# experiment: Effect of verapamil, PEG 400 and EDTA on trans-enterocyte transport of CA
# Type: in vitro ADME, human
# condition_context: human, Caco-2, with verapamil 100 μmol/L, CA 50 μM, 1.0 h, + 100 μmoL/L verapamil; read-out: Papp AP to BL
quantity: Papp A→B at 1 h, 50 μM (×10⁻⁶ cm/s)
# value in ×10⁻⁶ cm/s; strip the unit string

[in] Reported Papp A→B at 1 h, 50 μM, compound CC(C)c1cc2c(c(O)c1O)[C@@]1(C(=O)O)CCCC(C)(C)[C@@H]1CC2 : ____
[out] 1.89

###

# experiment: Trans-enterocyte transport of CA in Caco-2 cell monolayer
# Type: in vitro ADME, human
# condition_context: human, Caco-2, CA 75 μM, 3.0 h, CA alone; read-out: Papp AP to BL
quantity: Papp A→B at 3 h, 75 μM (×10⁻⁶ cm/s)
Expressed in ×10⁻⁶ cm/s, but write only the number.

[in] Need Papp A→B at 3 h, 75 μM of CC(C)c1cc2c(c(O)c1O)[C@@]1(C(=O)O)CCCC(C)(C)[C@@H]1CC2 [CA, Carnosic acid] , thanks.
[out] 0.62

###

# experiment: Effect of verapamil, PEG 400 and EDTA on trans-enterocyte transport of CA
# Type: in vitro ADME, human
# condition_context: human, Caco-2, with verapamil 100 μmoL/L, CA 75 μM, 2.0 h, + 100 μmoL/L verapamil; read-out: Papp AP to BL
quantity: Papp A→B at 2 h, 75 μM
Give the value; after it, write the unit.

[in] Can you share its Papp A→B at 2 h, 75 μM? I mean this molecule: CC(C)c1cc2c(c(O)c1O)[C@@]1(C(=O)O)CCCC(C)(C)[C@@H]1CC2
[out] 1.94 ×10⁻⁶ cm/s
